# assayed system: FGFR2 (N549H) (Homo sapiens, UniProt P21802, N549H)
# Construct: purchased Millipore 14-742
# Sequence (P21802 22-821 N549H): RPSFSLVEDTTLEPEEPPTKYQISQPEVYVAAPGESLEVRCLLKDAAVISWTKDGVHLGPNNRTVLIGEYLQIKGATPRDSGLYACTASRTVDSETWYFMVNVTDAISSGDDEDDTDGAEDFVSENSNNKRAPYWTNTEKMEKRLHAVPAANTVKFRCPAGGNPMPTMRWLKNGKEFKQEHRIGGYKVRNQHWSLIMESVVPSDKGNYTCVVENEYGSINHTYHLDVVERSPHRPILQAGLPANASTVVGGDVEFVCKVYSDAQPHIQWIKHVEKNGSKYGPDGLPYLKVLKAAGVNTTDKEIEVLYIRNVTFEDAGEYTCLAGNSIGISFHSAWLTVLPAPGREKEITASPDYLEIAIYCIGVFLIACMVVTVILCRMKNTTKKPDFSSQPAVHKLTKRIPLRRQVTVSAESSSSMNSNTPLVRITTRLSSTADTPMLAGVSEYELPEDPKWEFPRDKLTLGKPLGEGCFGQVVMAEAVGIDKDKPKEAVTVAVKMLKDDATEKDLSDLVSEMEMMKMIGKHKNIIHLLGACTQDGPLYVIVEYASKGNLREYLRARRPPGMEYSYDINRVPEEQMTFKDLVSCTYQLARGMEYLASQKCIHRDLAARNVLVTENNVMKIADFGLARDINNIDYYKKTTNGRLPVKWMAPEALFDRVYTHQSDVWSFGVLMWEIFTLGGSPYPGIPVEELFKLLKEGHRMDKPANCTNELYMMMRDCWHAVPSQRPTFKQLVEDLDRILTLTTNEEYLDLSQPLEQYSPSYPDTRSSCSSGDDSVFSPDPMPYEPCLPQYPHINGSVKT
# test protocol: FGFR2 kinase activity assay (fluorescent ELISA)
# Format: biochemical
# condition details: 30 μM compound
quantity: inhibition at 30 µM (%)

Look over these answered cases.
{"structure string": "COc1ccc(Cl)c(Nc2nccn3c(N)nnc23)c1", "inhibition at 30 µM / %": 82.8}
{"structure string": "COc1cc(CCNc2nccn3c(NC(=O)OC(C)C)nnc23)cc(OC)c1", "inhibition at 30 µM / %": 96.5}
{"structure string": "Cc1ccccc1Nc1nccn2c(NC(=O)OC(C)C)nnc12", "inhibition at 30 µM / %": 82}
{"structure string": "Cc1cccc(CNc2nccn3c(NC(=O)OC(C)C)nnc23)c1", "inhibition at 30 µM / %": 55.2}
{"structure string": "CN(c1cccc(Cl)c1)c1nccn2c(N)nnc12", "inhibition at 30 µM / %": 57.4}

P. CC(C)OC(=O)Nc1nnc2c(NCc3ccccc3C(F)(F)F)nccn12
Q. Nc1nnc2c(NCc3ccc(Br)cc3)nccn12
Incoming: Which is greater in inhibition at 30 µM, the first item P or the second item Q ? State the label of the item chosen.
Outgoing: P
(P: 87%, Q: 52.9%)
